attribute measured: Kd

-- ask # query: Kd | item "OCc1c[nH]c2ccccc12" | system: UniProt:Q9H0M0
-- reply ~120 nM

Each recorded value in this set is attributed to patent US20190374506A1.
